Data origin: PubChem BioAssay (EPA / NIEHS)

Test: NVS_IC_rCaBTZCHL: NovaScreen (NVS) Ion Channel Assay for Calcium Channel, Type L, Benzothiazepine Site (CaBTZCHL) (AID 2283337)
Results filed as inconclusive are left out. Active and inactive are the calls of the source. Rule for the calls: active = hit-call score of the fitted dose curve at least 0.9, where 1 is the maximum; inconclusive = response in the unintended direction; inactive = score below 0.9.
Outcomes: active, inactive

In [3]: df
Out[3]:
                                   compound  qualitative_label
0  CNS(=O)(=O)c1cc(C(=O)N2CCC(CCN3C4CCC3CC(n3c(C)nc5ccccc53)C4)(c3cccc(F)c3)CC2)c(Cl)cc1F (configuration not stated)             active
1  COCCOc1cc2cc(C(=O)NC3CCN(C(C)C)CC3)n(CC(=O)Nc3ccc(Cl)cn3)c2cn1             active
2  CCN(C(=O)c1cc(C)cc(OC[C@H](C)Nc2ccncc2)c1)C(C)C             active
3  CCOC(=O)c1ccc(C2CCC(NC[C@H](O)COc3ccc(O)c(NS(C)(=O)=O)c3)CC2)cc1 (some centres not stated)             active
4  Cc1[nH]cnc1C[C@H]1CCc2c(C)c3ccccc3n2C1=O           inactive
5  CCCN(C1CCN(C(=O)C2CCNCC2)CC1)[C@@H]1CCc2ccc(OC)cc2C1           inactive
6  COc1cccc(-c2ccc(/C=C\CN3CCCCCC3)cc2Cl)c1             active
